# assay-target: T1, Mmi1 USR-YTH (Schizosaccharomyces pombe, UniProt O74958 282-488)
# T1 sequence: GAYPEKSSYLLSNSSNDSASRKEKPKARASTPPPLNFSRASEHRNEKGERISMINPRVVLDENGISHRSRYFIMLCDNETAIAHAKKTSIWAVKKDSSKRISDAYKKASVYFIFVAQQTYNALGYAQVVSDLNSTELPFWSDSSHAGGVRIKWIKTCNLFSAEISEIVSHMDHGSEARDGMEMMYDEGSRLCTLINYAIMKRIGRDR
# protocol-summary: fluorescence polarization; 50 mM NaCl; FP: 10 mM TAPS pH 8.2, 2 mM PIPES, 50 or 150 mM NaCl, 0.5 mM MgAc, 0.1 mM TCEP, 0.01% Brij-35, room temperature, 0.1 nM RNA; EMSA: 20 mM HEPES pH 7.5, 100 mM NaCl (plus 30 mM from protein buffer), 1 mM MgAc, 0.1 mM TCEP, 5% glycerol, 50 nM RNA, 15 min; SwitchSENSE: 40 mM NaCl
# conditions-used: protein: recombinant; tags: N-terminal His6, 3C-cleaved; label: 3'-6-carboxyfluorescein
assay-metric: pKd
Hey, just a heads up that pKd is the negative log base 10 of the concentration in molar.

Query :: Please report the recorded pKd for UCUUAAACCAGUCAC (ssRNA) [DSRshort (15-mer)] .
Result :: 9.85

The measured values listed here are drawn from paper PMC6005420.
